# assayed_system: Tyrosine-protein kinase Yes (Homo sapiens) (UniProt P07947)
# Sequence (P07947 2-543 limits assumed): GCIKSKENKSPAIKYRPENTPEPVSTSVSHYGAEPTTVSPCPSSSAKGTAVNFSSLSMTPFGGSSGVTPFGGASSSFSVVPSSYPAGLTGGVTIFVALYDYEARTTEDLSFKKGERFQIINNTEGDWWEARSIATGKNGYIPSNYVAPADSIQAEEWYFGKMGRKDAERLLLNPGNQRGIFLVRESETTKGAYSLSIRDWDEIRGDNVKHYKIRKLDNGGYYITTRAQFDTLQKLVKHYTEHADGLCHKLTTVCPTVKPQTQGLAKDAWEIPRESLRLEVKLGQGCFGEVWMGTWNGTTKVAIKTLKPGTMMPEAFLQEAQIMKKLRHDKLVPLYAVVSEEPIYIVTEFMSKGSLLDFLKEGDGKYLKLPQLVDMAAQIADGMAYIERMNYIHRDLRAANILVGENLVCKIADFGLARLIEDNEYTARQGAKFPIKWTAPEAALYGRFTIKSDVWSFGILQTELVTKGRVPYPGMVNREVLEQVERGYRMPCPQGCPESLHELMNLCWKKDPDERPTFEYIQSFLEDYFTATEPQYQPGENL
# protocol_details: Inhibition of YES1 (unknown origin) at 500 nM
Decide by inhibition: equal to or exceeding 20% means Satisfied, less means Not satisfied.

[[record]]
smiles_string = "COc1cc(C(N)=O)ccc1-c1cc2c(N[C@H](CO)c3ccccc3)ncnc2s1"
assayed_system = "Tyrosine-protein kinase Yes (Homo sapiens) (UniProt P07947)"
assigned_class = "Satisfied"

[[record]]
smiles_string = "CN(C)CCNC(=O)c1ccc(-c2cc3c(N[C@H](CO)c4ccccc4)ncnc3s2)cc1"
assayed_system = "Tyrosine-protein kinase Yes (Homo sapiens) (UniProt P07947)"
assigned_class = "Satisfied"

[[record]]
smiles_string = "COc1cc(CO)ccc1-c1cc2c(N[C@H](C)c3ccccc3)ncnc2s1"
assayed_system = "Tyrosine-protein kinase Yes (Homo sapiens) (UniProt P07947)"
assigned_class = "Not satisfied"

[[record]]
smiles_string = "C[C@@H](Nc1ncnc2sc(-c3ccc(C(=O)NCCN(C)C)cc3)cc12)c1ccccc1"
assayed_system = "Tyrosine-protein kinase Yes (Homo sapiens) (UniProt P07947)"
assigned_class = "Satisfied"

[[record]]
smiles_string = "C#Cc1cccc(Nc2ncnc3sc(-c4ccc(CO)cc4OC)cc23)c1"
assayed_system = "Tyrosine-protein kinase Yes (Homo sapiens) (UniProt P07947)"
assigned_class = "Not satisfied"

[[record]]
smiles_string = "C[C@@H](Nc1ncnc2sc(-c3ccccc3C(N)=O)cc12)c1ccccc1"
assayed_system = "Tyrosine-protein kinase Yes (Homo sapiens) (UniProt P07947)"
assigned_class = "Not satisfied"

[[record]]
smiles_string = "COc1cc(CO)ccc1-c1cc2c(N[C@H](CO)c3ccccc3)ncnc2s1"
assayed_system = "Tyrosine-protein kinase Yes (Homo sapiens) (UniProt P07947)"
assigned_class = "Satisfied"

[[record]]
smiles_string = "COc1ccc(C(=O)NCCN(C)C)cc1-c1cc2c(N[C@H](C)c3ccccc3)ncnc2s1"
assayed_system = "Tyrosine-protein kinase Yes (Homo sapiens) (UniProt P07947)"
assigned_class = "Satisfied"

[[record]]
smiles_string = "COc1cc(CO)ccc1-c1cc2c(Nc3ccc(F)c(Cl)c3)ncnc2s1"
assayed_system = "Tyrosine-protein kinase Yes (Homo sapiens) (UniProt P07947)"
assigned_class = "Not satisfied"

